system: MDBK cells; assay: Cytostatic effect on exponentially growing MDBK cells (MTS); type: cell-based, Bovine; conditions: Table 10; mean toxic concentration, reduces growth of exponentially growing MDBK cells by 50%
Below, each entry is listed alongside its reported MTC.
Give the quantity in µg/mL, number only.

Use these answered entries as a reference point.
{"smilesRecord": "Fc1ccccc1-c1nc2ccn(Cc3ccc(Cl)cc3)cc-2n1", "MTC, µg/mL": 20}
{"smilesRecord": "c1ccc(-c2ccc(Cn3ccc4nc(-c5cccc6ccccc56)nc-4c3)cc2)cc1", "MTC, µg/mL": 4}
{"smilesRecord": "Brc1cccc(-c2nc3ccn(CCOc4ccccc4)cc-3n2)c1", "MTC, µg/mL": 20}
{"smilesRecord": "Cc1cn(Cc2ccc(Br)cc2)cc2nc(-c3ccccc3)nc1-2", "MTC, µg/mL": 20}

# lookup: MTC of Fc1ccccc1-c1nc2ccn(Cc3ccc(I)cc3)cc-2n1
20

# lookup: MTC of Clc1cn(Cc2ccc(Br)cc2)cc2nc(-c3ccccc3)nc1-2
20
